Biological target: Mitogen-activated protein kinase kinase kinase 8 (Homo sapiens, UniProt P41279)
Sequence (P41279 whole entry): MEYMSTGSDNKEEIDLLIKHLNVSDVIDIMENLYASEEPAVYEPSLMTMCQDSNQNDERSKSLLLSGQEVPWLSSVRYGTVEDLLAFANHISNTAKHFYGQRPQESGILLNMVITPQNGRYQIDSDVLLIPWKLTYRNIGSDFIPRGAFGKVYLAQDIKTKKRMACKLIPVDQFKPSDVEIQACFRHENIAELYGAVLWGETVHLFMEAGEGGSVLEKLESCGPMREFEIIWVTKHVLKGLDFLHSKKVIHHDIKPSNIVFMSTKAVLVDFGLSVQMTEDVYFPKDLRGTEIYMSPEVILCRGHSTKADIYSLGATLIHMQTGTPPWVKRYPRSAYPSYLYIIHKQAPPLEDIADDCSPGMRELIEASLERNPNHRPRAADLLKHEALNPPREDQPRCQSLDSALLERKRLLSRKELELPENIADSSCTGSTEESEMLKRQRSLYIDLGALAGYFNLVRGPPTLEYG
Assay: Inhibitory activity against human Tpl2 kinase via quantification of MEK phosphorylation
Format: functional
pIC50: −log10 of the molar value.
Assay Endpoint: pIC50

N#Cc1cnc2cnc(NCCN3CCOCC3)cc2c1Nc1ccc(Cl)cc1F    5.00
C[C@H](Nc1cc2c(Nc3ccc(F)c(Cl)c3)c(C#N)cnc2cn1)c1ccccc1    4.57
CN1CCN(CCCNc2cc3c(Nc4ccc(F)c(Cl)c4)c(C#N)cnc3cn2)CC1    4.68

(a) N#Cc1cnc2cnc(NC(CN3CCOCC3)c3ccccc3)cc2c1Nc1ccc(F)c(Cl)c1 (stereo not drawn)
(b) N#Cc1cnc2cnc(NCCN3CCOCC3)cc2c1Nc1ccc(Cl)c(Cl)c1
(c) N#Cc1cnc2cnc(NCCN3CCOCC3)cc2c1Nc1ccc(Cc2ccccc2)cc1
(d) N#Cc1cnc2cnc(NCCN3CCOCC3)cc2c1Nc1ccc(Oc2ccccc2)cc1
## Task Arrange these compounds by their pIC50, starting with the largest number. Reply: labels, ordered per the request.
## Result c, d, a, b

(1) N#Cc1cnc2cnc(NCCCN3CCCC3)cc2c1Nc1ccc(F)c(Cl)c1
(2) N#Cc1cnc2cnc(NCc3ccccc3)cc2c1Nc1ccc(F)c(Cl)c1
## Task Looking only at measured pIC50, which entry is lower, 1 or 2 ? Write down the label attached to your selection.
## Result 1

* * *

Molecular target: MAP kinase-activated protein kinase 2 (Homo sapiens)
Sequence (P49137 whole entry): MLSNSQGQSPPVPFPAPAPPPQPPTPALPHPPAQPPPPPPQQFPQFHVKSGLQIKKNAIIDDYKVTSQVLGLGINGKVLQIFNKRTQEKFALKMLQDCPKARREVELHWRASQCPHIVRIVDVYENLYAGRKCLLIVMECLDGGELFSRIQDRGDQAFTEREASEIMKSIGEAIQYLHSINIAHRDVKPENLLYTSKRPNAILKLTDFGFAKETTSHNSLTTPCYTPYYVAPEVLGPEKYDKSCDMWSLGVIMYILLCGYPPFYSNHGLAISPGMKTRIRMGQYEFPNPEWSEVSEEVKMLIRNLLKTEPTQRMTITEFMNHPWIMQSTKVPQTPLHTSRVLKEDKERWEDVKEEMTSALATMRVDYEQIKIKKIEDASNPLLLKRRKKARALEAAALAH
Assay: Inhibitory activity against MK2
pIC50: −log10 of the molar value.
Recorded pIC50 values for a group of compounds are listed next.

N#Cc1cnc2cnc(NCCN3CCOCC3)cc2c1Nc1ccc(Oc2ccccc2)cc1    < 3.40
N#Cc1cnc2cnc(NCCN3CCOCC3)cc2c1Nc1ccc(Cc2ccccc2)cc1    < 3.40
N#Cc1cnc2cnc(NCCN3CCOCC3)cc2c1Nc1ccc(F)c(Cl)c1    < 3.40
N#Cc1cnc2cnc(NCc3cccnc3)cc2c1Nc1ccc(F)c(Cl)c1    3.96

## Task Specify pIC50 for `N#Cc1cnc2cnc(NCCN3CCOCC3)cc2c1Nc1ccc(Sc2ccccc2)cc1` and stop.
## Result < 3.40

* * *

Target: Protein kinase C (PKC)
Test: Inhibitory activity against PKC
Type: protein assay
Assay Endpoint: IC50 (µM)

(A) N#Cc1cnc2cnc(NCCN3CCOCC3)cc2c1Nc1ccc(F)c(Cl)c1
(B) N#Cc1cnc2cnc(NCCN3CCOCC3)cc2c1Nc1ccc(Oc2ccccc2)cc1
## Task In terms of reported IC50, does A or B have the smaller number? Pick one; state its label.
## Result A

* * *

Assay: Plasma binding to human serum albumin
Type: ADME
Conditions: read-out: PPB (converted)
Assay Endpoint: fraction unbound

N#Cc1cnc2cnc(NCCN3CCOCC3)cc2c1Nc1ccc(Cc2ccccc2)cc1    0.01

(P) N#Cc1cnc2cnc(NCc3cccnc3)cc2c1Nc1ccc(F)c(Cl)c1
(Q) N#Cc1cnc2cnc(NCCN3CCOCC3)cc2c1Nc1ccc(F)c(Cl)c1
## Task Hi! Which is lower in terms of fraction unbound, the first one P or the second one Q ? Could you answer with the label of the item you picked?
## Result P

* * *

Assay: Solubility determined
Type: physicochemical
Conditions: read-out: Solubility
Assay Endpoint: solubility (µg/mL)

Below: 2 compounds and their reported solubility.
N#Cc1cnc2cnc(NCCN3CCOCC3)cc2c1Nc1ccc(Sc2ccccc2)cc1    1
N#Cc1cnc2cnc(NCc3cccnc3)cc2c1Nc1ccc(F)c(Cl)c1    2

(a) N#Cc1cnc2cnc(NCCN3CCOCC3)cc2c1Nc1ccc(F)c(Cl)c1
(b) N#Cc1cnc2cnc(NCCN3CCOCC3)cc2c1Nc1ccc(Oc2ccccc2)cc1
## Task Would you let me know which has the greater solubility value, a or b ? To answer, give the label that identifies your chosen option.
## Result a

* * *

Molecular target: Dual specificity mitogen-activated protein kinase kinase 1 (Homo sapiens)
Sequence (Q02750 whole entry): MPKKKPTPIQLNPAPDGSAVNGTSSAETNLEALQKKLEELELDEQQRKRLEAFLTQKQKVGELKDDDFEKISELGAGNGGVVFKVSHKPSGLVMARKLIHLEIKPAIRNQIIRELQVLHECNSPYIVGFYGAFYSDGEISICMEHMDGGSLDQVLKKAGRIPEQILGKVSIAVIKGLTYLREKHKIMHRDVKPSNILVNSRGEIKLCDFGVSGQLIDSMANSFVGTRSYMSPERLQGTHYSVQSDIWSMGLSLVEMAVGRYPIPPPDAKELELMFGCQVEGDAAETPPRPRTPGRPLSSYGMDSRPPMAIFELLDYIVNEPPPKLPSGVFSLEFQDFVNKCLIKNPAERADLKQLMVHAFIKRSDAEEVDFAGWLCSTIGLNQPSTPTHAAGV
Experiment: Inhibitory activity against MEK
Assay Endpoint: IC50 (nM)

Below, 2 molecules whose answers are already recorded.
N#Cc1cnc2cnc(NCCN3CCOCC3)cc2c1Nc1ccc(Sc2ccccc2)cc1    960
N#Cc1cnc2cnc(NCCN3CCOCC3)cc2c1Nc1ccc(Cc2ccccc2)cc1    630

(A) N#Cc1cnc2cnc(NCCN3CCOCC3)cc2c1Nc1ccc(F)c(Cl)c1
(B) N#Cc1cnc2cnc(NCCN3CCOCC3)cc2c1Nc1ccc(Oc2ccccc2)cc1
## Task Between A and B , which one shows the smaller IC50 number? Respond with the label that goes with your answer.
## Result B
(B: 800 nM, A: 15000 nM)

* * *

Molecular target: Mitogen-activated protein kinase kinase kinase 8 (Homo sapiens)
Test: Inhibitory activity against human Tpl2 kinase via quantification of MEK phosphorylation
Assay type: functional
Below, each entry is listed alongside its reported IC50.

Take a look at these entries with their results.
N#Cc1cnc2cnc(NCCN3CCOCC3)cc2c1Nc1ccc(Cl)cc1    > 40 µM
CC[C@H](Nc1cc2c(Nc3ccc(F)c(Cl)c3)c(C#N)cnc2cn1)c1ccccc1    > 40 µM
Cc1c(Br)cccc1Nc1c(C#N)cnc2cnc(NCCN3CCOCC3)cc12    > 40 µM
N#Cc1cnc2cnc(NCCN3CCOCC3)cc2c1Nc1ccc(S(=O)(=O)c2ccccc2)cc1    > 40 µM
N#Cc1cnc2cnc(NCCN3CCOCC3)cc2c1Nc1ccc(C(F)(F)F)cc1    > 40 µM
N#Cc1cnc2cnc(NCCN3CCOCC3)cc2c1NCc1ccc(F)c(Cl)c1    > 40 µM
N#Cc1cnc2cnc(NCCCN3CCOCC3)cc2c1Nc1ccc(F)c(Cl)c1    3.4 µM
CN(Cc1ccccc1)c1cc2c(Nc3ccc(F)c(Cl)c3)c(C#N)cnc2cn1    > 40 µM

Continue with the molecule presented below.
## Task Consider the molecule `N#Cc1cnc2cnc(NC3CCCC3)cc2c1Nc1ccc(F)c(Cl)c1` . State its measured IC50.
## Result > 40 µM

* * *

Biological target: Protein kinase C (PKC)
Assay: Inhibitory activity against PKC
Format: protein assay
Assay Endpoint: IC50

## Task Under Protein kinase C (PKC), report IC50 for `N#Cc1cnc2cnc(NCCN3CCOCC3)cc2c1Nc1ccc(Sc2ccccc2)cc1`
## Result > 400 µM

## Task Jot down IC50 (Protein kinase C (PKC)) of `N#Cc1cnc2cnc(NCCN3CCOCC3)cc2c1Nc1ccc(Cc2ccccc2)cc1` .
## Result > 400 µM

## Task State IC50 (Protein kinase C (PKC)) of `N#Cc1cnc2cnc(NCc3cccnc3)cc2c1Nc1ccc(F)c(Cl)c1` .
## Result > 400 µM
